- TARGET_OF_ASSAY: recombinant CD73 (Homo sapiens, UniProt P21589)
- Construct: purchased R&D Systems 5795-EN-010
- Sequence (P21589 27-547 limits assumed): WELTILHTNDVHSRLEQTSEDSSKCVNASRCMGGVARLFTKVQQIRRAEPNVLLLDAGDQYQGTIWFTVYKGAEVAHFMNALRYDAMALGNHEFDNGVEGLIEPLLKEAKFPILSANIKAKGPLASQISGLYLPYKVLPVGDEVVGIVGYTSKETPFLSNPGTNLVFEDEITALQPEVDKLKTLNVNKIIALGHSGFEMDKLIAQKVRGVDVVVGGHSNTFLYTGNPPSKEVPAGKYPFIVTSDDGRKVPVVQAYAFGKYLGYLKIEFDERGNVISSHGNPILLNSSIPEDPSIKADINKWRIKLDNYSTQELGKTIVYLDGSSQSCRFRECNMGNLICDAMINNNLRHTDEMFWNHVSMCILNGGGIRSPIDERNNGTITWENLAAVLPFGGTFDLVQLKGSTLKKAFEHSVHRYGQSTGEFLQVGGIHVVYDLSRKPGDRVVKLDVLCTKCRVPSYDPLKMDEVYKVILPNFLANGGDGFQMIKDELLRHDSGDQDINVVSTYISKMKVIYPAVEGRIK
- TEST_DETAILS: Assay 1: Inhibition of the CD73 Enzyme In Vitro
- Type: biochemical
pIC50: −log10 of the molar value.
This section presents compounds with their documented pIC50 values.

COMPOUND	RESULT
COC(=O)c1ccccc1-c1ccc(CC(OC[C@H]2O[C@@H](n3cnc4c(N)nc(Cl)nc43)[C@H](O)[C@@H]2O)(C(=O)O)c2ccccc2)cc1 (some centres unmarked) [Example 46]	< 4.30

Notebook: Nc1nc(Cl)nc2c1ncn2[C@@H]1O[C@H](COC(Cc2ccc(-c3ccccc3C(=O)O)cc2)(C(=O)O)c2cscn2)C[C@H]1O (some centres unmarked) [Example 50] , pIC50 read as < 6.00

---

- TARGET_OF_ASSAY: recombinant CD73 (Homo sapiens)
- Construct: purchased R&D Systems 5795-EN-010
- Sequence (P21589 27-547 limits assumed): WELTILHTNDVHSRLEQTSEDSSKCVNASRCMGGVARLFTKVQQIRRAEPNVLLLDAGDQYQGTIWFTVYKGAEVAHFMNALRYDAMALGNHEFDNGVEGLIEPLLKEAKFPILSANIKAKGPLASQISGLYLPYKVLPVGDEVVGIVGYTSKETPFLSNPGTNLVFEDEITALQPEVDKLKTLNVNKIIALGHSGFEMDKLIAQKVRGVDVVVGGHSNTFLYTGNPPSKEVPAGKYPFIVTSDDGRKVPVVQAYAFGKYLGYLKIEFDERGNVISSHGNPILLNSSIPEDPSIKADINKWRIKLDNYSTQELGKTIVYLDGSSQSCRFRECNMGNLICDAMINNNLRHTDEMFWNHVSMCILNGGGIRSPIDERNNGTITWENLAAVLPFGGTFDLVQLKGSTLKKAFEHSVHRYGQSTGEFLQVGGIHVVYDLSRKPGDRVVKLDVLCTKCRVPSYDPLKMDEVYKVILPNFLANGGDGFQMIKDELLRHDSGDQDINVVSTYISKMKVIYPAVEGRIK
- TEST_DETAILS: Assay 1: Inhibition of the CD73 Enzyme In Vitro
- Assay type: biochemical
- CONDITIONS: soluble recombinant CD73 0.5 nM, AMP 50 μM, 30 minutes at room temperature, Malachite Green, absorbance at 630 nm; read-out: Assay 1 CD73 IC50
- Protocol: Serial dilutions of test compounds were incubated with recombinant CD73 and AMP in reaction buffer (25 mM Tris HCl pH7.5, 5 mM MgCl2, 50 mM NaCl, 0.25 mM DTT, 0.005% Triton X-100). […] After 5 minutes at room temperature, absorbance at 630 nm was determined on a microplate spectrophotometer. The concentration of inorganic phosphate was determined using a phosphate standard curve. ND indicates not determined.
This section presents molecules with their documented log10 IC50 values.
In plain terms, each number is the log10 of measured IC50 in nM.

Study these solved cases before continuing.
MOLECULE	log10 IC50
N#CCc1ccccc1-c1ccc(C[C@@](OC[C@H]2O[C@@H](n3cnc4c(N)nc(Cl)nc43)[C@H](O)[C@@H]2O)(C(=O)O)c2cscn2)cc1 (single isomer, unassigned) [Example 4]	1.54
COc1cccc(CO)c1-c1ccc(C[C@](OC[C@H]2O[C@@H](n3cnc4c(N)nc(Cl)nc43)[C@H](O)[C@@H]2O)(C(=O)O)c2cscn2)cc1 (single isomer, unassigned) [Example 40]	3.35
Cc1nc([C@@](Cc2ccc(-c3ccccc3)cc2)(OC[C@H]2O[C@@H](n3cnc4c(N)nc(Cl)nc43)[C@H](O)[C@@H]2O)C(=O)O)cs1 (single isomer, unassigned) [Example 29]	3.51
Nc1nc(Cl)nc2c1ncn2[C@@H]1O[C@H](COC(Cc2ccc(-c3ccccc3)cc2)(C(=O)O)c2cscn2)[C@@H](O)[C@H]1O (mixture of isomers) [Example 1]	2.00
Nc1nc(Cl)nc2c1ncn2[C@@H]1O[C@H](CO[C@](Cc2ccc(-c3ccccc3)cc2)(C(=O)O)c2cscn2)[C@@H](O)[C@@H]1F (single isomer, unassigned) [Example 8]	2.38
Nc1nc(Cl)nc2c1ncn2[C@@H]1O[C@H](CO[C@@](Cc2ccc(-c3ccccc3OC(F)(F)F)cc2)(C(=O)O)c2cscn2)[C@@H](O)[C@H]1O (single isomer, unassigned) [Example 44]	2.56
Nc1nc(Cl)nc2c1ncn2[C@@H]1O[C@H](CO[C@](Cc2ccc(-c3ccccc3OC(F)(F)F)cc2)(C(=O)O)c2cscn2)[C@@H](O)[C@H]1O (single isomer, unassigned) [Example 43]	1.71
N#CCc1ccccc1-c1ccc(C[C@](OC[C@H]2O[C@@H](n3cnc4c(N)nc(Cl)nc43)[C@H](O)[C@@H]2O)(C(=O)O)c2cscn2)cc1 (single isomer, unassigned) [Example 5]	2.70
CCCNc1nc(Cl)nc2c1ncn2[C@@H]1O[C@H](COC(Cc2ccc(-c3ccccc3C(=O)O)cc2)(C(=O)O)c2cscn2)[C@@H](O)[C@@H]1F (mixture of isomers) [Example 25]	2.58

With those in mind, consider the next molecule.
Response field log10 IC50 (recombinant CD73 (Homo sapiens)) for item Cc1cc(C(Cc2ccccc2)(OC[C@H]2O[C@@H](n3cnc4c(N)nc(Cl)nc43)[C@H](O)[C@@H]2O)C(=O)O)no1 (mixture of isomers) [Example 37] : 3.94
